molecular target: recombinant soluble homotrimeric HA of A/chicken/Vietnam/NCVD-016/08 (H5N1) (Influenza A virus A/chicken/Vietnam/NCVD-016/2008(H5N1)); test: trimeric HA microarray, transfection supernatant set 2; settings: remark: other sources report otherwise
ASSAY_METRIC: Trimeric HA Binding: RLU (RLU)
Give bare numbers, in RLU.

Below: 2 binders and their reported Trimeric HA Binding: RLU.
TCN-523 (5248_A17) (antibody, V domains shown) VH: QVQLVQSGAEVKKPGSSVKVSCKASGGSFSNYAFSWVRQAPGQGLEWMGGTIPLLGTTNYAQKFQGRVTISADQFTSTAYMELGSLRSEDTAVYYCTRRKMTTAFDSWGQGTLVTVSS VL: QPVLTQPPSASASLGASVTLTCTLSSAYSNYKVDWYQQRPGKGPRFVMRVGTGGIVGSKGDGIPDRFSVLGSGLNRYLTIKNIQEEDESDYHCGADHGSGSNFVSPYVFGGGTKLTVL ... 17600
TCN-528 (5087_P17) (antibody, V domains shown) VH: QVQLVQSGSEVKKPGASVKVSCKASGYTFTNYDINWIRQAPGQGLEWMGWINPNSGTTGSAQRFQGRVTITVDTSITTVYMELSSLRSDDTAIYYCARGRELLRLQHFLTDSQSERRDCFDPWGQGTLVTVSS VL: DIQMTQSPSSLSASVGDRVTITCRANQDIGIYLNWYQQNPGKVPKLLLHGASSLQGGVPSRFSASGSGTDFTLTIHSLQPEDLATYYCQQSRRLPYTFGQGTRVELK ... 22600

Hey, can you go through the list below and give me Trimeric HA Binding: RLU for every item?
1. TCN-526 (5084_C17) (antibody, V domains shown) VH: EVLMVESGGGLVQPGGSVRLSCVASGFSFSSHWMTWVRQAPGKGLEWVANIEDDGGDKYYVDSVKGRFIISRDNAKNSVYLQMNSLRAEDTAVYFCARGSGSSDRSDYDPHYYYYLDVWGKGATVTVSS VL: DIQLTQSPSSLSASVGDRVTITCRASQSISRYLNWYQQKPGKAPKLLLFAASTLLDGVPSRFSGSGSGTDFTLTISSLQPEDFATYYCQRNHSPSWTFGQGTRVEIK
2. TCN-522 (3212_I12) (antibody, V domains shown) VH: QVQLQQWGAGLLKPSETLSLTCTVSGGSLTDYSWNWIRQPPGKGLEWIGDTLHNGYTNYNPSLRGRVSISIDTSKNQVSLRLTSVTAADTALYYCARGSGGYGGFDYFGKLRTWDFWGQGTLVTVSS VL: DIQLTQSPSSLSASVGDRVTITCRASQGIRNDLGWYQQKPGNAPKRLIFGASSLQSGVPSRFSGSGSGTEFTLTISSLQPEDFATYYCLQHNSYPYTFGQGTKLEIK
3. TCN-527 (5086_C06) (antibody, V domains shown) VH: QVQLQESGPGLVKPSETLSLNCAVSGGSISNYYWSWIRQPPGKGLEWIGYISYNGRPKYNPSLTSRVTISVDTSKDQFSLELRSVTAADTALYYCARETRFGELLSPYDAFEIWGQGTMVTVSS VL: DIQMTQSPSSLSASVGDRVTMTCRASQNIRSYLNWYQQRPGTAPKLLIYAASTLHSGVPSRFSGGGSGTDFTLTINNLQPEDFASYYCQQSYDNPQTFGQGTKVEIK
4. TCN-563 (5237_B21) (antibody, V domains shown) VH: QVQLAQSGAEVKRPGSSVKVSCTASGGIFRKNAISWVRQAPGQGLEWMGGIIAVFNTANYAQKFQGRVKITADESGNTAYMELSSLRSDDTAVYYCASHPKYFYGSGSYPDFWGQGTLVTVSS VL: QSALTQPRSVSGSPGQSVTISCTGSSSDVGASNSVSWYQQHPGKAPKLVIYDVTERPSGVPHRFSGSKSGNTASLTVSGLQPEDEADYFCCAYGGKYLVVFGGGTKVTVL

Result:
1. 3290
2. 49300
3. 20100
4. 36300
